So I've got a bunch of molecules here, and I need their MIC values.
Tested on: Escherichia coli
assay: Antimicrobial activity against Escherichia coli after 24 hrs by twofold serial dilution method
Assay type: functional
measurement.setup: read-out: -Log MIC
Dear colleague, please return just the value in µM, with no unit written.

Record lookup: for Escherichia coli, what MIC belongs to C/C=C/C=C/C(=O)Nc1ccc(Br)cc1 ? 79.4

What about C/C=C/C=C/C(=O)OCCCCCCC ? 79.4

What about C/C=C/C=C/C(=O)NCc1ccccc1 ? 100

What about C/C=C/C=C/C(=O)OCc1ccccc1 ? 100

What about C/C=C/C=C/C(=O)Nc1ccc(OC)cc1 ? 64.6

What about C/C=C/C=C/C(=O)N(CCO)CCO ? 91.2

What about C/C=C/C=C/C(=O)Nc1cccc([N+](=O)[O-])c1 ? 60.3

What about C/C=C/C=C/C(=O)Nc1ccccc1OC ? 79.4

What about C/C=C/C=C/C(=O)Nc1ccc(Cl)cc1 ? 72.4

What about C/C=C/C=C/C(=O)Nc1ccccc1N ? 69.2

What about C/C=C/C=C/C(=O)Nc1cccc(O)c1 ? 100

What about C/C=C/C=C/C(=O)Nc1ccccc1Cl ? 81.3

What about C/C=C/C=C/C(=O)Oc1cccc2cccnc12 ? 12.9

What about C/C=C/C=C/C(=O)Nc1cccc(C)c1 ? 79.4

What about C/C=C/C=C/C(=O)Oc1ccccc1 ? 74.1
